Entry source: paper PMC5540273

Kd values recorded for PRKD2

>  <Query smiles>
Cc1cc(Nc2nc(-c3cccc(C)n3)nc3ccccc23)ccn1

>  <Unit string>
nM

>  <Kd>
9.4

$$$$
>  <Query smiles>
Cc1cccc(-c2nc(Nc3ccc4c(cnn4C)c3)c3ccccc3n2)n1

>  <Unit string>
nM

>  <Kd>
12

$$$$

* * *

Quick reference for %Inh among some compounds
# Test system: NIK
# Construct: gene MAP3K14
# Condition description: concentration: 1 μM, replicates: in singlicate; n = 1

>  <Compound>
COc1ccc(-c2coc3ccc(-c4nnc(SCc5cccc(C#N)c5)o4)cc23)cc1

>  <%Inh / %>
2

$$$$
>  <Compound>
COc1cc2ncn(-c3cc(OCc4ccncc4)c(C(N)=O)s3)c2cc1OC [GSK336313]

>  <%Inh / %>
0

$$$$
>  <Compound>
CCC(=O)c1c(-c2ccccc2)c2cc(Cl)ccc2c(=O)n1Cc1cc(S(C)(=O)=O)n(CC(F)F)n1

>  <%Inh / %>
0

$$$$
>  <Compound>
Cc1nnc(-c2ccc3ncn(-c4ccc(S(C)=O)cc4)c3c2)o1 (centres unmarked)

>  <%Inh / %>
3

$$$$
>  <Compound>
O=C(Nc1n[nH]c2nc(-c3ccccc3)c(Br)cc12)C1CC1 [SB-708998]

>  <%Inh / %>
31

$$$$

* * *

Entries and their %Inh
# Test system: TIE2
# Construct: gene TEK
# Condition description: concentration: 1 μM, replicates: in singlicate; n = 1

>  <Compound>
OCCCNc1nccc(-c2c(-c3cccc(C(F)(F)F)c3)nn3cc(C(F)(F)F)ccc23)n1 [GW630813]

>  <Tested on>
TIE2

>  <%Inh / %>
0

$$$$
>  <Compound>
Cc1nc(N(C)[C@H]2CN(C(=O)CC#N)CC[C@H]2C)c2cc[nH]c2n1

>  <Tested on>
TIE2

>  <%Inh / %>
3

$$$$
>  <Compound>
CCC(=O)c1c(-c2ccccc2)c2cc(Cl)ccc2c(=O)n1Cc1ccc(C(=O)O)cc1

>  <Tested on>
TIE2

>  <%Inh / %>
0

$$$$
>  <Compound>
Nc1n[nH]c2ncc(-c3ccccc3)cc12 [SB-517081]

>  <Tested on>
TIE2

>  <%Inh / %>
0

$$$$
>  <Compound>
COc1ccc(CNC(=O)NC2CCN(c3ccnc(Nc4ccc(F)cc4)n3)C2)cc1 (stereo not drawn) [GSK1379706]

>  <Tested on>
TIE2

>  <%Inh / %>
2

$$$$
>  <Compound>
CCCC(=O)Nc1n[nH]c2ncc(-c3cccc4ccccc34)cc12 [SB-642057]

>  <Tested on>
TIE2

>  <%Inh / %>
0

$$$$
>  <Compound>
CCc1nc(-c2cccc(C)c2)c(-c2ccncc2)s1

>  <Tested on>
TIE2

>  <%Inh / %>
12

$$$$
>  <Compound>
O=C(Nc1n[nH]c2nc(-c3ccccc3)c(Cl)cc12)C1CC1 [SB-734909]

>  <Tested on>
TIE2

>  <%Inh / %>
15

$$$$
>  <Compound>
Fc1cccc(CSc2nnc(-c3ccc4c(c3)CCO4)o2)c1

>  <Tested on>
TIE2

>  <%Inh / %>
7

$$$$

* * *

# System: STK39
# Condition description: concentration: 1 μM, replicates: in singlicate; n = 1
Listing: %Inh of selected compounds

>  <Compound>
COc1cc2nccc(Nc3cccc(Oc4ccccc4)c3)c2cc1OC.Cl [GW284543]

>  <%Inh / %>
1

$$$$
>  <Compound>
COc1ccc(-c2coc3ccc(-c4nnc(SCc5cccc(C#N)c5)o4)cc23)cc1

>  <%Inh / %>
0

$$$$
>  <Compound>
Cc1nn2c(=O)cc(N3CCOCC3)nc2n1Cc1cccc(Cl)c1Cl [GSK2342769]

>  <%Inh / %>
10

$$$$
>  <Compound>
CCS(=O)(=O)c1ccc(OC)c(Nc2ncc(-c3ccc(F)cc3)o2)c1.Cl [GW591947]

>  <%Inh / %>
11

$$$$
>  <Compound>
Nc1nc(-c2ccccc2F)c(-c2ccnc3ccccc23)s1 [GW560459]

>  <%Inh / %>
1

$$$$
>  <Compound>
Nc1ncnc2c1ncn2-c1cccc(F)c1 [SKF-97560]

>  <%Inh / %>
0

$$$$
>  <Compound>
COc1cccc(C2=C(N(C)c3ccccc3)C(=O)NC2=O)c1 [SB-334865]

>  <%Inh / %>
7

$$$$
>  <Compound>
Cc1cc(Nc2nc(-c3cccc(C)n3)nc3ccccc23)ccn1 [GW872411]

>  <%Inh / %>
0

$$$$
>  <Compound>
CCCC(=O)Nc1n[nH]c2ncc(-c3cccc4ccccc34)cc12 [SB-642057]

>  <%Inh / %>
6

$$$$
>  <Compound>
O=C1NC(=O)C(c2ccccc2)=C1Nc1cccc(O)c1 [SB-390534]

>  <%Inh / %>
4

$$$$
>  <Compound>
Nc1nccc2scc(-c3ccc4c(c3)CCN4C(=O)Cc3ccccc3)c12 [GSK2576924]

>  <%Inh / %>
11

$$$$
>  <Compound>
CN1C(=O)C(Nc2ccccc2)=C(c2ccccc2)C1=O [SB-300079]

>  <%Inh / %>
0

$$$$
>  <Compound>
COc1ccc(-c2cc3c(C)nc(N)nc3n([C@H]3CC[C@H](OCCO)CC3)c2=O)cn1

>  <%Inh / %>
0

$$$$
>  <Compound>
Cl.c1ccc(Cn2cnc3cc(Nc4ncnc5ccccc45)ccc32)cc1 [GW272142]

>  <%Inh / %>
7

$$$$
>  <Compound>
Cl.NS(=O)(=O)c1cccc(Nc2cc(-c3ccc(F)cc3)n[nH]2)c1 [GW824645]

>  <%Inh / %>
0

$$$$
>  <Compound>
Cc1ccc(-c2ccc3c(ccc4sc5c(c43)NC[C@@H](C)N=C5N(C)C)n2)cn1

>  <%Inh / %>
0

$$$$
>  <Compound>
CN1C(=O)C(Nc2cc(Cl)c(O)c(Cl)c2)=C(c2ccc(Cl)cc2)C1=O [SB-404321]

>  <%Inh / %>
0

$$$$
>  <Compound>
Cc1ccccc1COc1cc(-n2cnc3cc(Cl)ccc32)sc1C(N)=O [GW813349]

>  <%Inh / %>
0

$$$$
>  <Compound>
CCC(=O)c1c(-c2ccccc2)c2cc(Cl)ccc2c(=O)n1Cc1cc(C(=O)NC2CC2)n(C)n1

>  <%Inh / %>
13

$$$$

* * *

# Test system: MLK1
# Construct: gene MAP3K9
# Condition description: concentration: 1 μM, replicates: in singlicate; n = 1

>  <Molecule>
CC(C)(C)c1ccc(C(=O)Nc2cn3cc(-c4ccccc4)ccc3n2)cc1

>  <%Inh>
0%

$$$$
>  <Molecule>
Cc1ccc(Oc2ccc(Nc3ncnc4cc[nH]c34)cc2C)cn1

>  <%Inh>
5%

$$$$
>  <Molecule>
COc1ccc(-n2cnc3c(N)ncnc32)cc1

>  <%Inh>
0%

$$$$
>  <Molecule>
CCC(=O)c1c(-c2ccccc2)c2cc(Cl)ccc2c(=O)n1Cc1ccc(C(=O)O)cc1

>  <%Inh>
0%

$$$$
>  <Molecule>
CCS(=O)c1ccc(-c2coc3ccc(-c4nnc(C)o4)cc23)cc1 (stereo not drawn)

>  <%Inh>
0%

$$$$
>  <Molecule>
COc1cccc(C2=C(Nc3cccc(C(=O)O)c3)C(=O)NC2=O)c1

>  <%Inh>
0%

$$$$
>  <Molecule>
CCC(=O)c1c(-c2ccccc2)c2cc(Cl)ccc2c(=O)n1Cc1cc(S(C)(=O)=O)n(CC(F)F)n1

>  <%Inh>
42%

$$$$
>  <Molecule>
CCc1ccc(-c2ccc3c(c2)-c2nn(C)cc2S(=O)(=O)N3C)cc1

>  <%Inh>
1%

$$$$
>  <Molecule>
CCS(=O)(=O)c1ccc(OC)c(Nc2ncc(-c3ccc(F)cc3)o2)c1.Cl

>  <%Inh>
0%

$$$$

* * *

# System: PAK2
# Condition description: concentration: 1 μM, replicates: in singlicate; n = 1
Experimental endpoint: %Inh (%)

>  <Query smiles>
CN1C(=O)C(Nc2cc(Cl)c(O)c(Cl)c2)=C(c2ccc(Cl)cc2)C1=O

>  <Numeric readout>
2

$$$$
>  <Query smiles>
COc1ccc(-n2cnc3c(N)ncnc32)cc1

>  <Numeric readout>
0

$$$$
>  <Query smiles>
O=C(Nc1n[nH]c2nc(-c3ccccc3)c(Cl)cc12)C1CC1

>  <Numeric readout>
0

$$$$
>  <Query smiles>
CCC(=O)c1c(-c2ccccc2)c2cc(Cl)ccc2c(=O)n1Cc1cc(S(C)(=O)=O)n(CC(N)=O)n1

>  <Numeric readout>
5

$$$$
>  <Query smiles>
CCC(=O)c1c(-c2ccccc2)c2cc(Cl)ccc2c(=O)n1Cc1cc(S(C)(=O)=O)n(CCC(C)(C)O)n1

>  <Numeric readout>
8

$$$$
